- SYSTEM: Cytochrome P450 2C19 (Homo sapiens, UniProt P33261)
- Sequence (P33261 whole entry): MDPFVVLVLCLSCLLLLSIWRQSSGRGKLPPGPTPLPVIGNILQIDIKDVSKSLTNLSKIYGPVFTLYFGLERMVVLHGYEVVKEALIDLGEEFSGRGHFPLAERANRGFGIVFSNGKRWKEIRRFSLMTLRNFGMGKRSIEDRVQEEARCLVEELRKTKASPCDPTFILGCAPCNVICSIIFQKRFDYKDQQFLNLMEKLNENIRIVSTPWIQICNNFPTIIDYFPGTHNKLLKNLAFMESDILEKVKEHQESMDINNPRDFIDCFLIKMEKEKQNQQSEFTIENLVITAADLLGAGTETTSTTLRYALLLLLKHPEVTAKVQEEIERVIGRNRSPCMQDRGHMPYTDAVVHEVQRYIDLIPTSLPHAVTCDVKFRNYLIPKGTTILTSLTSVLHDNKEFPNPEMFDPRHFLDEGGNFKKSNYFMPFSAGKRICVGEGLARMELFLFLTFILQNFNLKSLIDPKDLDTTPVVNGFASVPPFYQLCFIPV
- EXPERIMENT: Cytochrome panel assay with activity outcomes. Panel member name: p450-cyp2c19 Compounds with AC50 equal or less than 10 uM are considered active
- Assay type: functional
- CONDITIONS_USED: read-out: AC50
METRIC_NAME: AC50

compound=CCCN(CC1CC1)c1nc(C)nc(Nc2c(Cl)cc(Cl)cc2Cl)c1Cl reported_measurement="31.6 µM (inconclusive)"
compound=CCOC(=O)Cc1cc(O)n2nc(C)c(-c3ccccc3)c2n1 reported_measurement="22.4 µM (inconclusive)"
compound=O=C(N/N=C\c1ccc2c(c1)CCC2)c1ccccc1O reported_measurement="0.251 µM (inconclusive)"
compound="Cc1cc(N2C(=O)C(O)=C(C(=O)c3cccs3)C2c2cccc(O)c2)no1 (stereo unspecified)" reported_measurement="31.6 µM (inconclusive)"
compound=CN(C)S(=O)(=O)c1ccc(NC(=O)c2cc(F)c(F)cc2Cl)cc1 reported_measurement="17.8 µM (inconclusive)"
compound=COCCn1c(=O)c(C)nc2cnc(Oc3ccccc3)nc21 reported_measurement="39.8 µM (inconclusive)"
compound=O=C(O)/C(Cc1ccc([N+](=O)[O-])cc1)=N/O reported_measurement="5.01 µM (inconclusive)"
compound="CCOc1ccc(C(=O)C2=C(O)C(=O)N(CCOCCO)C2c2ccccc2OC)cc1 (stereo unspecified)" reported_measurement="25.1 µM (inconclusive)"
compound=COC(=O)Cn1cc(/C=N/NC(=O)c2ccc(C#N)cc2F)c2ccccc21 reported_measurement="22.4 µM (inconclusive)"
compound=Cc1cnn(CCC(=O)NN=C(S)Nc2cccc(Cl)c2)c1 reported_measurement="39.8 µM (inconclusive)"
compound=COc1ccc(Cc2nc3cc(S(=O)(=O)N4CCOCC4)ccc3[nH]2)cc1OC reported_measurement="25.1 µM (inconclusive)"

###

- SYSTEM: UniProt:P55055
- Sequence (P55055 whole entry): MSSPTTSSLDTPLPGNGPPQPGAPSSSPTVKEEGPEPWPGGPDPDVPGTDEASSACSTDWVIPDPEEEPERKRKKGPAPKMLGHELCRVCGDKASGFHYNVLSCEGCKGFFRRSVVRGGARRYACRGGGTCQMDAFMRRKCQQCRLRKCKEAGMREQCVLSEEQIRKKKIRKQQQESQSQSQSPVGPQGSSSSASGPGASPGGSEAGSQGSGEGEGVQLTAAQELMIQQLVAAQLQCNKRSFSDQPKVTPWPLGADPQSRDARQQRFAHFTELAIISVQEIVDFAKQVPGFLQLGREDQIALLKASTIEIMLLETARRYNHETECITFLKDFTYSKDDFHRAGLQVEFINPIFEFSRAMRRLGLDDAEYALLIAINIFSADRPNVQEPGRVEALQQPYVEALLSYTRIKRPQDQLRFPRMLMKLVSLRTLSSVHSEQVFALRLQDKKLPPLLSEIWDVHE
- EXPERIMENT: LXR agonists, Gal4 luciferase reporter, dose response, counter-screen for ssDAF-12 agonist project, cell-based, luminescence, HEK293, S. stercoralis campaign (AID 720737)
- Format: functional
- CONDITIONS_USED: read-out: IC50 (the source's name)
Active and inactive are the calls of the source.
METRIC_NAME: EC50

smiles_structure=Clc1ccc(-c2nc3n(n2)Cc2ccccc2-3)cc1 reported_measurement="> 67.5 µM (inactive)"
smiles_structure=CCOc1cc(/C=N/NC(=O)Nc2ccccc2)ccc1O reported_measurement="> 67.6 µM (inactive)"
smiles_structure=Cc1onc(-c2ccccc2)c1C(=O)OCC(=O)c1ccc(F)cc1 reported_measurement="> 67.5 µM (inactive)"
smiles_structure=CN(/N=C/c1cccnc1)c1cnc2ccccc2n1 reported_measurement="> 67.5 µM (inactive)"

###

Below, each entry is listed with its recorded EC50.
- System: BJ
- EXPERIMENT: cytotoxicity toward BJ-TERT fibroblasts, dose response, cell-based, RAS-independent, luminescence (AID 1933)
- Assay type: functional
- CONDITIONS_USED: Homo sapiens
Activity calls are given as the source filed them.
METRIC_NAME: EC50

compound="O=C(NC1CCCCC1)C(c1cccnc1)N(C(=O)CCl)c1ccccc1Cl (centres undefined)" system=BJ reported_measurement="3.94 µM (inconclusive)"
compound=N#C/C(=C\c1cccnc1)c1nc2ccccc2[nH]1 system=BJ reported_measurement="23.5 µM (active)"
compound=Nc1ncnc2c1ccn2[C@@H]1O[C@H](CO)[C@@H](O)[C@H]1O system=BJ reported_measurement="2.08 µM (inconclusive)"
compound=COc1cc(C(=O)/C=C/c2cccnc2)c([N+](=O)[O-])cc1OC system=BJ reported_measurement="13 µM (active)"

###

- SYSTEM: Caspase-3 (Homo sapiens);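 further: Dose-response selectivity test against caspase-3 for candidate inhibitors of sentrin-specific proteases (SENPs)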
- Type: functional
Active and inactive are the calls of the source.
# IC50 per entry
METRIC_NAME: IC50

compound=COc1cc(C(=O)c2nccc3cc(OC)c(OC)cc23)c([N+](=O)[O-])cc1OC metric_name=IC50 reported_measurement="31.9 µM (active)"
compound=Cc1nc(C)c(-c2csc(Nc3ncccc3C)n2)s1 metric_name=IC50 reported_measurement="16.4 µM (active)"
compound=c1ccc2c(Nc3nnc(-c4ccncc4)s3)cccc2c1 metric_name=IC50 reported_measurement="18.5 µM (active)"
compound=O=C(Nc1cccc(Cl)c1)c1ccc(OC(=S)N2CCOCC2)cc1 metric_name=IC50 reported_measurement="31.4 µM (active)"
compound="CC1Cc2cc(/C=C3/SC(=S)NC3=O)ccc2O1 (stereo not given)" metric_name=IC50 reported_measurement="16.9 µM (active)"

###

Quick record: AC50, Cytochrome P450 2C9 (Homo sapiens).
METRIC_NAME: AC50

compound=c1ccc(CNc2ncncc2-c2ccc3c(c2)OCO3)cc1 reported_measurement="316 nM (inconclusive)"
compound=Nc1ccc(C(=O)N/N=C/c2ccccc2)cc1 reported_measurement="282 nM (inconclusive)"
compound=Cc1ccc(N[C@H](c2ccccc2)c2ccc3cccnc3c2O)cc1 reported_measurement="3980 nM (inconclusive)"
compound=O=C(N/N=C/c1c(Nc2cccc(C(F)(F)F)c2)nc2ccccn2c1=O)c1ccccc1 reported_measurement="12600 nM (inconclusive)"
compound=O=S(=O)(c1ccccc1)N1CN2CN(C1)CN(S(=O)(=O)c1ccccc1)C2 reported_measurement="631 nM (inconclusive)"
compound=Cc1ccccc1-c1ccc2ncnc(N(C)C)c2c1 reported_measurement="398 nM (inconclusive)"
compound=Cc1cccc(C(=O)c2ccccc2C(=O)O)c1O reported_measurement="100 nM (inconclusive)"
compound=CCOc1ccc(N2C(=O)/C(=C/c3cc(OC)c(OC)c(OC)c3)N(CC(=O)OC)C2=S)cc1 reported_measurement="1410 nM (inconclusive)"
compound=COc1cc(C(=O)NC(=S)Nc2ccc(Cl)c(C(=O)O)c2)cc(OC)c1OC reported_measurement="28200 nM (inconclusive)"
compound="CC1(C)C(=O)C(c2ccccc2)=C2CN3C(=O)N(CCc4ccccc4)C(=O)C3(Cc3ccc(F)cc3)C=C21 (stereo not given)" reported_measurement="10000 nM (inconclusive)"

###

- SYSTEM: SUMO-activating enzyme (Homo sapiens)
- Sequence (Q9UBE0 whole entry): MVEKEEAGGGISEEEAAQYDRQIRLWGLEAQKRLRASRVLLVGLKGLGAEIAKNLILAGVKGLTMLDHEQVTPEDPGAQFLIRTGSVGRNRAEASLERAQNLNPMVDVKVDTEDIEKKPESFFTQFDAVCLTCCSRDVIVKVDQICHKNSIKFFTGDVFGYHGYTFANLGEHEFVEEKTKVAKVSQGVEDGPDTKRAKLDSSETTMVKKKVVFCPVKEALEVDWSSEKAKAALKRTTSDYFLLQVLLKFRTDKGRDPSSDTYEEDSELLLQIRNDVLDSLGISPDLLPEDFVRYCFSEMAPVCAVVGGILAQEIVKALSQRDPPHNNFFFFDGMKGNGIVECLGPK
- Sequence (Q9UBT2 whole entry): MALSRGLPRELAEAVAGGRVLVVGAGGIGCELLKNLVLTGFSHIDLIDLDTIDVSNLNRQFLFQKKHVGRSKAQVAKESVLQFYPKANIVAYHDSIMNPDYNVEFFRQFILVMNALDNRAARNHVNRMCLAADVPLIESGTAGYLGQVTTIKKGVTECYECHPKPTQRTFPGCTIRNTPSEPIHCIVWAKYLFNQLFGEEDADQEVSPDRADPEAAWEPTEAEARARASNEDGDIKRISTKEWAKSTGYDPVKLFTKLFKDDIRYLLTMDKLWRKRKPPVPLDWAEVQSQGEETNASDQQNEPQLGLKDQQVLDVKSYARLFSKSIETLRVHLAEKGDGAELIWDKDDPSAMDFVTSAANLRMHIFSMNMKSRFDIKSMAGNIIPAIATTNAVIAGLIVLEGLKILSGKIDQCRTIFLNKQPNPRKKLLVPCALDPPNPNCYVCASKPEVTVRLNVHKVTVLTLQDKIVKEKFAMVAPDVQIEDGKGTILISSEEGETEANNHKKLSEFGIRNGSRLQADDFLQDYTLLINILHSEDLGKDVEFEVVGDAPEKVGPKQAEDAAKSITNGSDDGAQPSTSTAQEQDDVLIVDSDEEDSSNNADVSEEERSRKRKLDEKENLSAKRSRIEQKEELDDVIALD
- EXPERIMENT: inhibitors of in vitro SUMOylation cascade, primary screen, biochemical, HTRF, uHTS (AID 2006)
- Format: protein-complex assay
Active and inactive are the calls of the source.
METRIC_NAME: IC50

compound=COc1cc(/C=N/NC(=O)c2ccccc2O)ccc1OCC(=O)Nc1ccccc1 system="SUMO-activating enzyme (Homo sapiens)" metric_name=IC50 reported_measurement="8.71 µM (active)"
compound="NC(=O)CC(NC(=O)Cc1ccc(Br)cc1)c1ccc(N2CCC(Br)CC2)c([N+](=O)[O-])c1 (stereo not given)" system="SUMO-activating enzyme (Homo sapiens)" metric_name=IC50 reported_measurement="34.5 µM (active)"
compound="COC(=O)c1cc(O)cc(OC)c1Oc1cc(C)cc(O)c1C(=O)O [ASTERRIC ACID]" system="SUMO-activating enzyme (Homo sapiens)" metric_name=IC50 reported_measurement="17.7 µM (active)"
compound=N#Cc1c(O)nc(SCC(=O)N2c3ccccc3Sc3ccccc32)nc1-c1ccccc1 system="SUMO-activating enzyme (Homo sapiens)" metric_name=IC50 reported_measurement="14.3 µM (active)"
compound=Cc1ccc2nsnc2c1NC(=O)c1ccc(-c2cc(Cl)ccc2Cl)o1 system="SUMO-activating enzyme (Homo sapiens)" metric_name=IC50 reported_measurement="4.64 µM (active)"

###

- EXPERIMENT: inhibitors of firefly luciferase expression or activity, dose response, H4 neuroglioma cells, luminescence (AID 1990)
- Format: functional, cell-based
Calls of active or inactive are those of the source.
EC50 values, listed per item
METRIC_NAME: EC50

compound=C=CCc1cccc(/C=N/NC(=O)CNc2ccccc2)c1O metric_name=EC50 reported_measurement="> 120000 nM (not active)"
compound="Nc1ncnc2c1ccn2[C@@H]1O[C@H](CO)[C@@H](O)[C@H]1O [TUBERCIDIN]" metric_name=EC50 reported_measurement="< 100 nM (active)"
compound=CCCOc1ccc(C2=NNC(=O)CC2)cc1 metric_name=EC50 reported_measurement="< 100 nM (active)"
compound=Cc1ccc2nc(NC(=O)CCCc3nc4ccccc4s3)sc2c1 metric_name=EC50 reported_measurement="499 nM (active)"
